Target: Klf4 ZnF1-3 E446P (Mus musculus, UniProt Q60793 396-483, E446P)
Sequence (Q60793 396-483 E446P): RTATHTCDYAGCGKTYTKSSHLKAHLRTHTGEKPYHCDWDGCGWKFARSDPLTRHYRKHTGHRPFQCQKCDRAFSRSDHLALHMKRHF
Test: fluorescence polarization
reported-endpoint: Kd

Task item: Which Kd is reported for this binder? 5mCpG hemimethylated FP probe (dsDNA, 5mC at position 5 of strand 1; strand 2 unmethylated) DNA 1: GAGGCGTGGC DNA 2: TTGCCACGCCTC
Reply: < 5 nM
